Biological target: human Protein Tyrosine Phosphatase Receptor Type M (PTPRM), PTPRM (gene 5797) (UniProt P28827)
Sequence (P28827 whole entry, looked up): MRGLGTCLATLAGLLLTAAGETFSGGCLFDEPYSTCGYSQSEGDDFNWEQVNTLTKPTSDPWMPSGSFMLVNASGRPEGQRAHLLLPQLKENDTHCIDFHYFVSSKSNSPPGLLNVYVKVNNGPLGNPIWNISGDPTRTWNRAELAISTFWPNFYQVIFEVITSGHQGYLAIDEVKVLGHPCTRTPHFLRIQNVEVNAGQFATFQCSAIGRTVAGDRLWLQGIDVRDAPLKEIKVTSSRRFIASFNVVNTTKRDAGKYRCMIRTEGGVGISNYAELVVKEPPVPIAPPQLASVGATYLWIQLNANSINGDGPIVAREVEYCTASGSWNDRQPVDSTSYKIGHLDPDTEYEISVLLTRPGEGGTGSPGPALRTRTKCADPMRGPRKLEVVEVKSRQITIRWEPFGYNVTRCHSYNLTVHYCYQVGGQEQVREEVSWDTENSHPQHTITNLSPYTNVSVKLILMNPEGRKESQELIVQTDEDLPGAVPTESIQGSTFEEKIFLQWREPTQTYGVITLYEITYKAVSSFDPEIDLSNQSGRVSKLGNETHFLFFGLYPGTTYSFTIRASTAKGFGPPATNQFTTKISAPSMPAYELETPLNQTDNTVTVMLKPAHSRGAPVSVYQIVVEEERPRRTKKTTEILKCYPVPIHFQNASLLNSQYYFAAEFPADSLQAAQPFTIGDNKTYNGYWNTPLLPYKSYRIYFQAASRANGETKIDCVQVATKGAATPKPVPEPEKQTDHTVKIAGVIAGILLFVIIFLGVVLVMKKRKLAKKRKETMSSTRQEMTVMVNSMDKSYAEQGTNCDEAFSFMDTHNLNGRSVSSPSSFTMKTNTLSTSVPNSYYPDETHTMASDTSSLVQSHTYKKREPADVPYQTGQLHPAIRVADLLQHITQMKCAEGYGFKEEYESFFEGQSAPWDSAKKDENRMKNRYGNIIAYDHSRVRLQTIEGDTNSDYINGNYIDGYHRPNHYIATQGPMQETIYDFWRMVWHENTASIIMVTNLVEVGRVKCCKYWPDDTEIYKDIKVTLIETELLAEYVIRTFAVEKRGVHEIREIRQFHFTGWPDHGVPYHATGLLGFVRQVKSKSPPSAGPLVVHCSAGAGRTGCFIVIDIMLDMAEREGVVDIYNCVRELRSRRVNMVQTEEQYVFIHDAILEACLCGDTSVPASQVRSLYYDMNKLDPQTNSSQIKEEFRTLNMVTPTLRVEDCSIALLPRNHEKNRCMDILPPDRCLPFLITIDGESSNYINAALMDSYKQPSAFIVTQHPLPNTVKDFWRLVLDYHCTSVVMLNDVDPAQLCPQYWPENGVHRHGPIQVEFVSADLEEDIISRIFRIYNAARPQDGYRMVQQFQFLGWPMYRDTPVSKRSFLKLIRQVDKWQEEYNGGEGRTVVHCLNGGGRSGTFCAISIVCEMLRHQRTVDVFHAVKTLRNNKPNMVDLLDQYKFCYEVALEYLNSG
Experiment: NVS_ENZ_hPTPRM: NovaScreen (NVS) Enzymatic Assay for human Protein Tyrosine Phosphatase Receptor Type M (PTPRM) (AID 2283215)
Inconclusive results are not listed. The source made the active and inactive calls. Rule for the calls: active = hit-call score of the fitted dose curve at least 0.9, where 1 is the maximum; inconclusive = response in the unintended direction; inactive = score below 0.9.
The reply should be one of these categories: active, inactive

Per the assay record, what outcome was assigned to `O=C(O)c1cc(N=Nc2ccc(S(=O)(=O)Nc3ccccn3)cc2)ccc1O` ?
inactive

Now this one: `Nc1ccc(Nc2ccccc2)cc1`
active

// repeat for `O=P(OC(CCl)CCl)(OC(CCl)CCl)OC(CCl)CCl` and report
inactive

Quick one: `O=C(O)c1cccc(Oc2ccccc2)c1`
inactive

###

Read-out: Human Leukocyte Antigen - DR isotype (HLADR), HLA-DRA (gene 3122)
Test: BSK_3C_HLADR: BioMAP Diversity Plus: 3C Assay for Human Leukocyte Antigen - DR isotype (HLADR) Biomarker Activity (AID 2283019)
Settings: primary human endothelial cells (HUVEC); actives raise or lower the signal
The source made the active and inactive calls. How the source made its calls: active means hit-call score of the fitted dose curve at least 0.9, where 1 is the maximum; inactive means score below 0.9.
Thanks in advance; please answer with one of these: active, inactive

Please let me know the test result on file for O=c1n(CC2CO2)c(=O)n(CC2CO2)c(=O)n1CC1CO1 (centres undefined) .
active

Can you check `CC1(C)C(=O)N(Br)C(=O)N1Br` next?
inactive

Try the compound `Clc1nc(Cl)c(Cl)c(Cl)c1Cl`
active

Consider next the compound `Cc1[nH]cnc1C[C@H]1CCc2c(C)c3ccccc3n2C1=O` in the same way.
active

Would you mind doing `C1N2CN3CN1CN(C2)C3` as well?
inactive

Try this compound too: `CC[C@H]1CC[C@H](NCc2cc3c(cc2OC)[C@H]2C[C@H]2C(=O)N3C)[C@H](c2ccccc2)N1`
inactive

Entry to check: CCCCC(CC)COC(=O)c1ccc(C(=O)OCC(CC)CCCC)cc1 (centres undefined)
inactive

Similarly, `O=C(O)c1cc(N=Nc2ccc(S(=O)(=O)Nc3ccccn3)cc2)ccc1O` ?
inactive

Repeat for the following compound: `CC(C)CCCCCCOC(=O)c1ccc(C(=O)OCCCCCCC(C)C)c(C(=O)OCCCCCCC(C)C)c1`
inactive

Similarly, `Nc1cccc(N)c1` ?
inactive

Field entry: `CCCCCCCCCCCCCCCO`
active

Queued: `COc1cccc(-c2ccc(/C=C\CN3CCCCCC3)cc2Cl)c1`
active

And what about the compound `Cc1ccc(S(=O)(=O)O)cc1C` ?
inactive

Same thing, different compound: `CC(C)CCO`
inactive

Follow-up item: `CCCC(=O)OCC`
inactive

`Cn1c(=O)c2c(ncn2C)n(C)c1=O` , same question.
inactive

How about this compound: Fc1ccccc1[C@@H](F)COC1CCC(Nc2ncnc3[nH]ncc23)CC1 (some centres undefined)
active

Do the same for `CC(C)=CCCC(C)=CC=O` please
inactive

Also, `COC(=O)CC(=O)OC` please.
inactive

Next up: `COC(=O)c1ccccc1O`
inactive

Repeat for the following compound: `CCCCCCCCCCCCc1ccccc1`
active

Also `CCOCCO` , if possible.
inactive

Try this compound too: `CC[C@H]1OC(=O)[C@H](C)[C@@H](O[C@H]2C[C@@](C)(OC)[C@@H](O)[C@H](C)O2)[C@H](C)[C@@H](O[C@@H]2O[C@H](C)C[C@H](N(C)C)[C@H]2O)[C@](C)(O)C[C@@H](C)C(=O)[C@H](C)[C@@H](O)[C@]1(C)O`
inactive

What do you have for `CCN(C(=O)c1cc(C)cc(OC[C@H](C)Nc2ccncc2)c1)C(C)C` ?
inactive

What do we get for `O=C(NS(=O)(=O)/C=C/c1ccccc1)c1ccc(F)cc1Cl` ?
inactive

Another compound to look at: `O=C(CCCCCCCCc1cccnc1)N1CCC(C=C(c2ccccc2)c2ccccc2)CC1`
active

Moving on to the next compound: `C1=CCCC=CCCC=CCC1`
inactive

Also, `CC(C)c1cccc(C(C)C)c1N1C(=O)c2ccc(O)cc2C1=O` please.
active

For `On1ccccc1=S` then?
active

And what about the compound O=C1OC(=O)C2C3C=CC(C3)C12 (centres undefined) ?
inactive

Another compound to check: `CC(C)CCCCCCCOC(=O)CCCCC(=O)OCCCCCCCC(C)C`
inactive

Next: `Oc1ccc2c(c1)-c1ccccc1C2`
inactive

`CC1=CC(=O)CC(C)(C)C1` ?
inactive

Do the same for `CCNc1ccccc1` please
inactive

Please give the result for `Cn1c(=O)cc(Oc2ccc(F)cc2F)c2cnc(NCC(C)(C)O)nc21` too.
active

Same again, this time with `C=CCCCCCCCCC(=O)O`
inactive

Would you kindly repeat that for `COc1ccc(/C=C/S(=O)(=O)NC(=O)c2ccc(C)cc2Cl)cc1` ?
inactive

Quick one: `CCOCCOCCOCCO`
inactive

Next up: `COC(=O)c1c(Cl)c(Cl)c(C(=O)OC)c(Cl)c1Cl`
inactive

// query: `CCc1cc(SCc2sc(-c3ccc(C(F)(F)F)cc3)nc2CN2CCN(c3ccc(OC)cc3)CC2)ccc1OCC(=O)O`
active

Input `C[C@](N)(Cc1ccc(O)c(O)c1)C(=O)O`
inactive

One more compound: CC(C)=CCCC(C)CCO (centres undefined)
inactive

What do you have for `CNCc1ccc(NC(=O)c2c[nH]c3c2C(=O)CCC3)cc1` ?
inactive

// same read-out, input: `O=C(OC[C@H]1O[C@@H](OC(=O)c2cc(O)c(O)c(OC(=O)c3cc(O)c(O)c(O)c3)c2)[C@H](OC(=O)c2cc(O)c(O)c(OC(=O)c3cc(O)c(O)c(O)c3)c2)[C@@H](OC(=O)c2cc(O)c(O)c(OC(=O)c3cc(O)c(O)c(O)c3)c2)[C@@H]1OC(=O)c1cc(O)c(O)c(OC(=O)c2cc(O)c(O)c(O)c2)c1)c1cc(O)c(O)c(OC(=O)c2cc(O)c(O)c(O)c2)c1`
active

Lookup `O=P(OC(CCl)CCl)(OC(CCl)CCl)OC(CCl)CCl`
inactive

Another compound: `COc1ccc2sc(C(=O)Nc3nnn[nH]3)c(OC(C)C)c2c1`
active

Do the same for `CC(=O)OCCC(C)C` please
inactive

Also need O=C(O)CC(O)C(=O)O (centres undefined) , thanks.
inactive

Field entry: `CCCN(C1CCN(C(=O)C2CCNCC2)CC1)[C@@H]1CCc2ccc(OC)cc2C1`
inactive

###

Read-out: Paternally Expressed 10 (PEG10), PEG10 (gene 23089)
Assay: LTEA_HepaRG_PEG10: Life Technologies and Expression Analysis (LTEA) Assay for Paternally Expressed 10 (PEG10) using HepaRG (AID 2283520)
Conditions: mRNA level, 48 h; actives raise or lower the signal
Activity calls are given as the source filed them. The calls were made as follows: active = hit-call score of the fitted dose curve at least 0.9, where 1 is the maximum; inactive = score below 0.9.
Choose the fitting class; nothing outside active, inactive is accepted.

Test call for this molecule, please: `O=C(CCCCCCCCc1cccnc1)N1CCC(C=C(c2ccccc2)c2ccccc2)CC1`
active

And then `Cc1ccc(C)c(O)c1` , what is it?
inactive

# iterate: `Nc1cccc(N)c1`
inactive

For `O=C(OC[C@H]1O[C@@H](OC(=O)c2cc(O)c(O)c(OC(=O)c3cc(O)c(O)c(O)c3)c2)[C@H](OC(=O)c2cc(O)c(O)c(OC(=O)c3cc(O)c(O)c(O)c3)c2)[C@@H](OC(=O)c2cc(O)c(O)c(OC(=O)c3cc(O)c(O)c(O)c3)c2)[C@@H]1OC(=O)c1cc(O)c(O)c(OC(=O)c2cc(O)c(O)c(O)c2)c1)c1cc(O)c(O)c(OC(=O)c2cc(O)c(O)c(O)c2)c1` then?
active

What about `C=CCCCCCCCCC(=O)O` ?
inactive

Okay, and CC(C)CC(C)(O)C#CC(C)(O)CC(C)C (stereo not given) ?
inactive

Same lookup for `CCCC(=O)OCC` , please.
inactive

Try this molecule too: `CC(C)=CCC/C(C)=C/CO`
inactive

Item: `On1ccccc1=S`
inactive

Now the same for `COc1ccc(/C=C/S(=O)(=O)NC(=O)c2ccc(C)cc2Cl)cc1`
active

###

Test: ATG_GRE_CIS: Attagene CIS-FACTORIAL HepG2 Assay for human Glucocorticoid Response Elements (GRE) (AID 2282947)
Settings: HepG2 GRE cis-reporter, Attagene multiplex mRNA; actives raise or lower the signal
Calls of active or inactive are those of the source. Rule for the calls: active = hit-call score of the fitted dose curve at least 0.9, where 1 is the maximum; inactive = score below 0.9.
One label from this list, please: Yes = active, No = inactive

I'd appreciate the recorded outcome for `CC1=CC(=O)CC(C)(C)C1` from this test.
No

Also check O=c1n(CC2CO2)c(=O)n(CC2CO2)c(=O)n1CC1CO1 (configuration not stated)
Yes

Consider next the molecule `CC(=O)OC[C@H]1O[C@@](COC(C)=O)(O[C@H]2O[C@H](COC(C)=O)[C@@H](OC(C)=O)[C@H](OC(C)=O)[C@H]2OC(C)=O)[C@@H](OC(C)=O)[C@@H]1OC(C)=O` in the same way.
No

Also `Oc1ccc2c(c1)-c1ccccc1C2` , if possible.
No

One more molecule: `CCCC(=O)OCC`
No

Please answer likewise for `CC(C)=CCC/C(C)=C\CO`
No

Same again, this time with `COCCOCCOCCOC`
No

Same lookup for `CC[C@H]1CC[C@H](NCc2cc3c(cc2OC)[C@H]2C[C@H]2C(=O)N3C)[C@H](c2ccccc2)N1` , please.
Yes

What do you have for CCCCC(CC)COC(=O)CCCCCCCCC(=O)OCC(CC)CCCC (configuration not stated) ?
No

Same read-out for `C=CC(=C)CCC=C(C)C` ?
No

What about this molecule? `Cn1cnc([N+](=O)[O-])c1Sc1ncnc2nc[nH]c12`
No

What about `CC(C)CCCCCCCOC(=O)CCCCC(=O)OCCCCCCCC(C)C` ?
No
